Values from PubChem BioAssay

# procedure details: binders of probe aFST on microarray, primary screen, stem cell growth factor project, biochemical, small-molecule microarray, fluorescence 635/667 (AID 1086);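 note: score merges 667 nm fluorescence with signal-to-noise of each printed compound spot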
# details: higher = more signal
Listed here are molecules together with their documented composite z-score.

>  <molecule>
CC(CCC(=O)OC[C@H]1O[C@H](C#Cc2ccccc2)C=C[C@@H]1Oc1ccc(C)cc1)=NO[C@@H](C)c1cc(-c2c(C)cc(C)cc2C)no1

>  <composite z-score>
-0.213

$$$$
>  <molecule>
COC(=O)[C@H](C)NC(=O)CCC1CC(OC(=O)NCCc2ccc(F)cc2)CC2(CCCC(COC(=O)NCCc3ccccc3OC)O2)O1 (some centres not stated)

>  <composite z-score>
-0.0835

$$$$
>  <molecule>
CC(C)(C)N1C(=O)[C@H]2[C@H]3[C@H](O)[C@H](O)CC(=NOC[C@@H](O)COCc4ccco4)[C@@H]3CC[C@H]2C1=O

>  <composite z-score>
-0.0115

$$$$
>  <molecule>
O=C1C2=CC[C@H]3C(=O)N(C[C@@H]4CCCO4)C(=O)[C@H]3[C@H]2[C@H](O)[C@@H]2O[C@H]12

>  <composite z-score>
-0.258

$$$$
>  <molecule>
COc1ccc(O[C@H]2C=C[C@@H](c3ccccc3)O[C@@H]2CO)cc1

>  <composite z-score>
-0.221

$$$$
>  <molecule>
CCN1C(=O)[C@H]2[C@H]3[C@H](O)[C@H](O)CC(=NO[C@H](C)c4cn([C@H](CO)Cc5ccccc5)nn4)[C@@H]3CC[C@H]2C1=O

>  <composite z-score>
0.606

$$$$
>  <molecule>
CC(=O)OC[C@H]1O[C@H](CC=NO[C@@H](C)c2cn([C@H](CO)Cc3ccccc3)nn2)C=C[C@@H]1OC(C)=O

>  <composite z-score>
0.275

$$$$

----------
# procedure details: binders from COS7 lysate, DM2A8 probe, primary screen, torsin A project, cell lysate, small-molecule microarray, fluorescence 635/667 (AID 1065)
# details: higher = more signal, COS7 lysate expressing mutant human TOR1A

>  <substance smiles>
CCc1cc2c(nc1CC)CCN(CCC(C)=NOCC[C@@H]1C=C[C@H](OC(C)=O)[C@@H](COC(C)=O)O1)C2

>  <composite z-score>
1.66

$$$$
>  <substance smiles>
CC(C)=CCCC(C)=CCON=C1C[C@@H](O)[C@@H](O)[C@@H]2[C@@H]3C(=O)N(Cc4ccc5c(c4)OCO5)C(=O)[C@@H]3CC[C@@H]12

>  <composite z-score>
-0.777

$$$$
>  <substance smiles>
CC(C)CON=C1C[C@@H](O)[C@@H](O)[C@@H]2[C@@H]3C(=O)N([C@@H](C)c4ccccc4)C(=O)[C@@H]3CC[C@@H]12

>  <composite z-score>
0.114

$$$$
>  <substance smiles>
CC(C)=CCCC(C)=CCON=C1[C@H]2CCn3c(=O)n(-c4ccccc4)c(=O)n3[C@H]2[C@H](O)[C@@H]2O[C@H]12

>  <composite z-score>
0.207

$$$$
>  <substance smiles>
C#CCCCON=C1C[C@@H](O)[C@@H](O)[C@@H]2[C@@H]3C(=O)N([C@@H](C)c4ccccc4)C(=O)[C@@H]3CC[C@@H]12

>  <composite z-score>
-0.318

$$$$
>  <substance smiles>
CCOC(=O)CCN1C(=O)[C@H]2[C@H]3[C@H](O)[C@H](O)CC(=NOCC(C)C)[C@@H]3CC[C@H]2C1=O

>  <composite z-score>
1.88

$$$$
>  <substance smiles>
CO[C@H]1COC(=O)CC=C[C@@H](C)COC(=O)[C@H]2CCCN2C(=O)CC=C[C@H]1C

>  <composite z-score>
2.36

$$$$
